Experiment: NCI Yeast Anticancer Drug Screen. Data for the mec2-1 strain (AID 157)
Details: S. cerevisiae mec2-1 strain, at 50.0 µM, stronger effect = higher value
The panel holds about 79,000 compounds, 15% with a hit somewhere; the sample as a whole holds those more often. Activity calls are given as the source filed them. No stated cut-off is given here; in the data, active means growth inhibition above about 70%; inactive means the rest.
measurement-kind: growth inhibition

• CCN(C/C=C/CN(CC)C(=S)Nc1ccccc1)C(=S)Nc1ccccc1 = -7.85% (inactive)
• S=c1[nH]nc(SCc2ccc(Cl)cc2Cl)c2[nH]cnc12 = 1.4% (inactive)
• CCOC1OC(C(O)CO)C(O)C(O)C1O (configuration not stated) = -8.7% (inactive)
• O=Cc1ccc(/C=C/C(=O)O)cc1 = -10.1% (inactive)
• COc1ccc2ccc3ccc(OC)nc3c2n1 = 40.2% (inactive)
• O=[N+]([O-])c1cccc(/C=C/c2cc(N(CCO)CCO)c3ccccc3n2)c1 = 12.8% (inactive)
• COc1cc(C(=O)C(C)Br)cc(OC)c1OC (configuration not stated) = 46.1% (inactive)

----------
Assay: NCI Yeast Anticancer Drug Screen. Data for the sgs1 mgt1 strain (AID 161);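 further: 0% = growth of cultures given vehicle only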
Conditions: S. cerevisiae sgs1 mgt1 strain, at 50.0 µM, stronger effect = higher value
This is part of a sample that, as a whole, favours compounds with a hit. Of some 79,000 tested, about 15% had one in any assay.
measurement-kind: growth inhibition (%)

* C[CH2][Sn]([CH2]C)([O]C(=O)c1ccc2c(c1)OC(C)(C)O2)[O]C(=O)c1ccc2c(c1)OC(C)(C)O2 | 4.7
* N#CC(=Nc1ccc2ccccc2c1)C1=C(O)c2ccccc2C1=O | 0.2
* Nc1ccccc1NC(=O)C(F)(F)F | 3.3
* O=C1OC(=O)C2C3C=CC(C3)C12 (centres undefined) | 23.1
* COC(=O)C(NC(=O)c1ccccc1)C(c1c(O)cc(O)cc1O)P(=O)(OC)OC (centres undefined) | 12.4
* Clc1ccccc1/C=C/c1ccnnc1 | -3.65
* N#C/C(=C\C1CCCC([N+](=O)[O-])C1)C1CCC([N+](=O)[O-])CC1 (centres undefined) | -7.15
* Cc1ccc(N=Nc2c(O)c(S(=O)(=O)O)cc3cc(S(=O)(=O)O)ccc23)c(C)c1 | -13.8
* Cc1c(C)c2c(c(C)c1Cl)CC2(Cl)Cl | -9.15
* CC1CCC2C(C)C3C(CC4C5CC=C6CC(O)CCC6(C)C5CCC43COC(=O)c3ccccc3)N2C1 (centres undefined) | 55.8
* O=C1NC(=O)C2(CCC(O)C2)c2cc[n+]([O-])cc21 (centres undefined) | -13.6
* CCCC(C(O)CC)[N+](=O)[O-] (centres undefined) | 11.7
* c1cc(Nc2ccncc2)ccn1 | -1.9
* Cc1ccc(Nc2nc3ccccc3nc2NS(=O)(=O)c2ccc(N)cc2)cc1 | 13.3
* CC(C)(C)n1c(=O)n(-c2ccccc2)n(C(C)(C)C)c1=O | -28.2
* CC(C)CC1OCC(C)(C)CO1 | -11.3
* CC1CC(NC(=O)/C=C/C(=O)O)CC(C)(C)C1 (centres undefined) | 9
* CC1(C)C2CC3C(CCC4C(=O)OC(=O)C43)C1C2 (centres undefined) | -3.8
* Cc1ccc(S(=O)(=O)C2(NC(=O)c3ccc(Cl)cc3)CC2)cc1 | -6.9
* CCSCC1OC(n2cnc3c(=S)nc(N)[nH]c32)C(O)C1O (centres undefined) | -0.75
* CC(Nc1cccc(Cl)c1)c1ccncc1 (centres undefined) | -15.2
* CC(=O)CC(=O)NCC#N | 23.9
* O=C(Nc1ccccc1SC(/C=C/NNC1=NC(c2ccccc2)C(c2ccccc2)=NN1)c1ccccc1)c1ccc(Cl)cc1Cl (centres undefined) | -22.8
* CC(=O)NC(C(=O)Nc1ccccc1)=C(C)C | -11.8

----------
Assay: NCI Yeast Anticancer Drug Screen. Data for the rad50 strain (AID 155);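 further: 0% = growth of vehicle-only cultures of the same strain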
Details: S. cerevisiae rad50 strain growth inhibition; at 50.0 µM; stronger effect = higher value
Compounds without any hit were thinned out: in the full panel of roughly 79,000, 15% have a hit.
Entries and their growth inhibition
measurement-kind: growth inhibition (%)

* C=CCSS/C=C/CS(=O)CC=C (stereo not drawn) | 22.6
* CCNCCNC(=O)c1ccc(I)cc1 | -33.9
* CCN(CC)CCC(=O)N1C/C(=C/c2ccccc2)C(=O)/C(=C\c2ccccc2)C1 | 47.4
* Cc1c(COC(=O)NC(C)C)c(COC(=O)NC(C)C)c2n1CCS2(=O)=O | -26.8
* C[N+]1(CCC(=O)c2ccco2)CC2CCC(CC2)C1 (stereo not drawn) | 3.9
* Cc1ccc(/C=N/NC(N)=S)c(C)c1 | 8.5
* CC(C)(C)C(=O)C(c1ccc(-c2cscn2)cc1)c1ccc(-c2cscn2)cc1 | -2
* CC(=O)OC(COC(c1ccccc1)(c1ccccc1)c1ccccc1)C(OC(C)=O)C(COC(c1ccccc1)(c1ccccc1)c1ccccc1)OC(C)=O (stereo not drawn) | -25.9
* CCn1c(=O)c2c3ccc(OC(C)=O)cc3[nH]c2c2ccc(OC(C)=O)cc21 | -17.9
* CC(=O)CCC(=O)CC(=O)CCC(=O)Nc1cc(Cl)ccc1Cl | 15.3
* O=C(Oc1c(OC(=O)c2ccccc2)c2ccccc2c2ccccc12)c1ccccc1 | 3.2
* C[C@H](CCc1nc(C#N)c(N)o1)[C@H]1CC[C@H]2[C@@H]3CCC4C[C@@H](O)CC[C@]4(C)[C@H]3C[C@@H](O)[C@]12C (stereo partly drawn) | 87
* CC(C)CCCC(C)C1CCC2C3CC=C4CC(O[N+](=O)[O-])CCC4(C)C3CCC12C (stereo not drawn) | -24.8
* Cc1ccc(NC(=O)/C=C2\CONC(c3ccccc3)=N2)cc1 | -10.1
* Clc1ccc(C=NC23CC4CC(CC(C4)C2)C3)cc1Cl | -19.1
* CC/C(=N/NS(=O)(=O)c1ccc(C)cc1)c1ccc(O)cc1 | 22.7
* Cc1ccnc2ccccc12 | 0.15
* COc1ccc(NC(=O)CCCC(=O)CC(=O)c2ccc(Cl)cc2)c(OC)c1 | 32.6
* CCOC(=O)COc1cc2c(cc1Cc1ccc3c(c1)OCO3)OCO2 | 0.6
* CCN(CCNc1cc(OC)cc2cccnc12)c1ccccc1 | 59.9
* CCN(CC)n1c(N)nc2c1c(=O)n(C)c(=O)n2C | -9.05
* C=CCCN=C(SC)SC | 3.8
* Cc1ccc2nc(-c3ccc(CSC(=N)N)cc3)oc(=O)c2c1 | 40.2

----------
Entries and their growth inhibition
Assay: NCI Yeast Anticancer Drug Screen. Data for the rad50 strain (AID 155);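 further: 0% = growth of vehicle-only cultures of the same strain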
Conditions: S. cerevisiae rad50 strain growth inhibition; at 50.0 µM; stronger effect = higher value
This is part of a sample that, as a whole, favours compounds with a hit. Of some 79,000 tested, about 15% had one in any assay.
measurement-kind: growth inhibition (%)

• O=C1C=C(Nc2ccccc2C(=O)CC(=O)C(=O)Nc2ccc(Cl)cc2)c2ccccc2C1=O = 5.05
• Cc1nc2c(sc3ccccc3n2C)c2nc3c(sc4ccccc4n3C)c(C)c12 = -3.95
• COc1ccc(C(CC(=O)c2ccccc2)SCCN2CCOCC2)cc1 (stereo not given) = 4.25
• COc1ccccc1OCC(COC(=O)Nc1ccccc1)OC(=O)Nc1ccccc1 (stereo not given) = -44.2
• N=C1C=CC2C(=Nc3ccccc3[N+]2=O)N1Cc1ccncc1 (stereo not given) = -2.9

----------
Assay: NCI Yeast Anticancer Drug Screen. Data for the mec2-1 strain (AID 157)
Conditions: S. cerevisiae mec2-1 strain, at 50.0 µM, stronger effect = higher value
The panel holds about 79,000 compounds, 15% with a hit somewhere; the sample as a whole holds those more often.
Entries and their growth inhibition
measurement-kind: growth inhibition (%)

- CCCCCCCC(C)(O)C#CC(C)(O)CCCCCCC (stereo not drawn): -4.15
- O=S1(=O)c2ccccc2NC(c2ccc3ccccc3c2)CC1c1ccccc1F (stereo not drawn): -28.1
- CCOC(=O)C(NC(=O)c1ccccc1)(c1ccc(S(=O)(=O)Nc2onc(C)c2C)cc1)C(F)(F)F (stereo not drawn): -8.9
- Cc1cc(-c2ccc([NH2+][B-](F)(F)F)c(C)c2)ccc1[NH2+][B-](F)(F)F: -3.15
- ClC[P+](c1ccccc1)(c1ccccc1)c1ccccc1: 19.3
- COc1ccc2nc(-c3ccccc3)c(=O)[nH]c2c1: 13.8
- CC1(C)C2CC3C(CCC4C(=O)OC(=O)C43)C1C2 (stereo not drawn): 10.2
- NC(=O)N/N=C/c1ccc(Cl)cc1Cl: -5.55
- NC(=O)c1nsc(-c2ccc([N+](=O)[O-])cc2)c1N: 0.9
- O=C(CC(O)(C(F)(F)F)C(F)(F)F)c1ccc(Cl)c([N+](=O)[O-])c1: 99.2
- CC1CCCN(P(c2ccccc2)N2CCCC(C)C2)C1 (stereo not drawn): 4.6
- O=C1C(c2ccccc2)=C(c2ccccc2)/C1=C\c1ccc(Cl)cc1Cl: -5.9
- O=C(S)c1ccccc1Br: 0
- Cn1c2cc(Cl)c(Cl)cc2nc2cc3c(cc21)c(Cl)c(=O)c1cc2cc(Cl)c(Cl)cc2cc13: 8.65
- NC(=O)C(=O)NNC(=O)Nc1ccc(Cl)cc1: 12.3
- CC(C)c1cc(C(C)C)c(B(c2ccccc2)c2ccccc2)c(C(C)C)c1B(c1ccccc1)c1ccccc1: 4.8
- CCC1(CC)SCc2nc3ccccc3n21: 18.2
- CC(C)(C#N)OC(=O)c1cc([N+](=O)[O-])cc([N+](=O)[O-])c1: 4.45
- C=C1CCC23CC(CC[C@@H]2[C@@]12C[C@@H](c1ccoc1)OC2=O)OC3=O (stereo partly drawn): -12.6
- COc1ccc(SC/C(=N\NOS(=O)(=O)c2ccc(C)cc2)c2ccccc2)cc1: 34.1
- Cc1cccc(NCc2ccccc2)c1: 5.95
- COc1ccc(CN2C(=S)SC(c3ccc(Cl)cc3)N2c2ccc(OC)cc2)cc1 (stereo not drawn): -19.6
- CCC(=O)C(CC)c1ccccc1OC (stereo not drawn): -8.35
- COC(=O)c1cn[nH]c1CC(N)=O: 11.5
- CC(=O)N/N=C/c1ccc(C)cc1: -1.3
- O=c1[nH]nc(SCc2ccccc2)c(=O)[nH]1: -3.5
- NC(=O)C(=O)C(c1ccccc1)S(=O)(=O)Cc1ccccc1 (stereo not drawn): -39.1
- O=C(c1ccc(Cl)cc1Cl)N1CCCCC1: -6.15
- COc1cc(C2C3=C(CCC3=O)Oc3cc4c(cc32)OCO4)cc(OC)c1OC (stereo not drawn): 17.1
- N#C/C(N)=C(/C#N)N=Cc1ccccc1: 21.3
- CC1(C)OC(=C(C#N)C#N)C(C#N)=C1/C=C/c1ccncc1: 29.4
- O=C(Nc1ccccc1-c1n[nH]c(=S)[nH]c1=O)C(F)(F)F: 2.05
- CC1(C)O[C@@H]2[C@@H](COC(=O)c3ccccc3)C[C@@H](C#N)[C@@H]2O1: -0.85
- CN1CCC=C(C(C)(C)O)C1: -4.45
- CCOCC(C)(CO)CC(C)CO (stereo not drawn): 1.35
- C[N+]1(CCC(=O)c2ccco2)CC2CCC(CC2)C1 (stereo not drawn): -18.1
- Cc1ccc(N(C(=O)CC(=O)N/N=C/c2ccccc2O)C(=O)c2ccccc2)cc1: -16.8
- Cc1ncn(-c2ccccc2)c(=O)c1N=Cc1ccccc1: -17.1
- CC(=O)OCC1OC(n2c(Br)nc3c(N)ncnc32)C(O)C1O (stereo not drawn): -4.5
- CCCCC(CC)CCC(C)=O (stereo not drawn): -0.8
- COc1ccc(/C=N/NC(=O)c2ccc(N)cc2)cc1: 3
- CC(=O)OCC1OC(OC(C)=O)C(NS(=O)(=O)Cc2ccccc2)C(OC(C)=O)C1OC(C)=O (stereo not drawn): 17.4
- NC(=S)N/N=C/c1ccc(Cl)cc1Cl: 42.5
- CCCC/C=C/C1C=CC(CCCCCCCC(=O)OCC)C(C(=O)OCC)C1 (stereo not drawn) (tested in a mixture with another compound): 8.75
- O=C1c2cc([N+](=O)[O-])ccc2-c2c(F)cc(F)cc21: -8.05
- c1ccc(Nc2nnc(Nc3ccccc3)s2)cc1: 21.6
- CCCCOC(=O)C12CCCCC1O2 (stereo not drawn): -29.9
- O=C(NCC1CC1)Nc1cccc2ccccc12: -3.4
